- Tested on: breast line MDA468
- test description: In vitro cell culture growth assay (MTS), MDA468
- Type: cell-based, human
- assay conditions: Homo sapiens, 72 h, MDA468 cells, three days after drug treatment
outcome measure: IC50 (nM)
Give the quantity in nM, number only.

compound: COC(=O)N1CCC(n2ncc3c(N4CCOCC4)nc(-c4ccc(NC(=O)Nc5ccc(CCN6CCCC6)cc5)cc4)nc32)CC1 [Compound 914]
IC50 / nM: 20
--
compound: c1ccc(-n2ncc3c(N4CCOCC4)nc(-c4ccc[nH]4)nc32)cc1 [Compound 6]
IC50 / nM: 11000
--
compound: COCCNCCc1ccc(NC(=O)Nc2ccc(-c3nc(N4CCOCC4)c4cnn(C5CCN(C(=O)OC)CC5)c4n3)cc2)cc1 [Compound 922]
IC50 / nM: 90
--
compound: O=C(NCCF)Nc1ccc(-c2nc(N3CCOCC3)c3cnn(CC(F)(F)F)c3n2)cc1 [Compound 790]
IC50 / nM: 150
--
compound: O=C(Nc1ccncc1)Nc1ccc(-c2nc(N3CCOCC3)c3cnn(C4CCN(Cc5cccnc5)CC4)c3n2)cc1 [Compound 587]
IC50 / nM: 120
--
compound: NCC(=O)Nc1ccc(-c2nc(N3CCOCC3)c3cnn(-c4ccccc4)c3n2)cc1 [Compound 136]
IC50 / nM: 400

I would be grateful if you could share the reported IC50 for Clc1cc(-c2nc(N3CCOCC3)c3cnn(C4CCN(Cc5ccccc5)CC4)c3n2)ccn1 [Compound 157] .
60000

Then what about the compound CN1CCC(C(=O)Nc2ccc(-c3nc(N4CCOCC4)c4cn[nH]c4n3)cc2)CC1 [Compound 284] ?
22000

Next record, please: NC(=O)Nc1cccc(-c2nc(N3CCOCC3)c3cnn(C4CCN(Cc5ccccc5)CC4)c3n2)c1 [Compound 483]
12000

How about this compound: CN(C)CCNC(=O)Nc1ccc(-c2nc(N3CCOCC3)c3cnn(C4CCN(Cc5ccccc5)CC4)c3n2)cc1 [Compound 513]
600

What would you report for NC(=O)Nc1ccc(-c2nc(N3CCOCC3)c3cnn(C4CCN(C(=O)c5ccccc5)CC4)c3n2)cc1 [Example 382] ?
200

---

- Test system: breast line MDA468
- test description: In vitro cell culture growth assay (MTS), MDA468
- Format: cell-based, human
- assay conditions: Homo sapiens, 72 h, MDA468 cells, three days after drug treatment
outcome measure: IC50 (nM)
Reply numerically in nM, unit not repeated.

Reference set, count: 4
molecule: NC(=O)Nc1ccc(-c2nc(N3CCOCC3)c3cnn(C4CCN(Cc5cccnc5)CC4)c3n2)cc1 [Example 313]
IC50 / nM: 200
--
molecule: CC(=O)Nc1ccc(-c2nc(N3CCOCC3)c3cnn(C4CCN(C(=O)c5cccnc5)CC4)c3n2)cc1
IC50 / nM: 2500
--
molecule: CN(C)CC(=O)N1CCC(n2ncc3c(N4CCOCC4)nc(-c4ccc5[nH]ccc5c4)nc32)CC1
IC50 / nM: 4200
--
molecule: CN(C)CC(=O)Nc1ccc(-c2nc(N3CCOCC3)c3cn[nH]c3n2)cc1 [Compound 281]
IC50 / nM: 18000

Would you mind telling me what IC50 value was observed for NC(=O)CN1CCC(n2ncc3c(N4CCOCC4)nc(-c4ccc5[nH]ccc5c4)nc32)CC1 [Compound 245] ?
2800

For CNC(=O)Nc1ccc(-c2nc(N3CCOCC3)c3cnn(C4CCN(C(=O)c5ccc(Br)cc5)CC4)c3n2)cc1 [Example 360] then?
200

---

Each entry below carries its reported IC50.
- target system: PI3K (Homo sapiens, UniProt P42336)
- Sequence (P42336 whole entry): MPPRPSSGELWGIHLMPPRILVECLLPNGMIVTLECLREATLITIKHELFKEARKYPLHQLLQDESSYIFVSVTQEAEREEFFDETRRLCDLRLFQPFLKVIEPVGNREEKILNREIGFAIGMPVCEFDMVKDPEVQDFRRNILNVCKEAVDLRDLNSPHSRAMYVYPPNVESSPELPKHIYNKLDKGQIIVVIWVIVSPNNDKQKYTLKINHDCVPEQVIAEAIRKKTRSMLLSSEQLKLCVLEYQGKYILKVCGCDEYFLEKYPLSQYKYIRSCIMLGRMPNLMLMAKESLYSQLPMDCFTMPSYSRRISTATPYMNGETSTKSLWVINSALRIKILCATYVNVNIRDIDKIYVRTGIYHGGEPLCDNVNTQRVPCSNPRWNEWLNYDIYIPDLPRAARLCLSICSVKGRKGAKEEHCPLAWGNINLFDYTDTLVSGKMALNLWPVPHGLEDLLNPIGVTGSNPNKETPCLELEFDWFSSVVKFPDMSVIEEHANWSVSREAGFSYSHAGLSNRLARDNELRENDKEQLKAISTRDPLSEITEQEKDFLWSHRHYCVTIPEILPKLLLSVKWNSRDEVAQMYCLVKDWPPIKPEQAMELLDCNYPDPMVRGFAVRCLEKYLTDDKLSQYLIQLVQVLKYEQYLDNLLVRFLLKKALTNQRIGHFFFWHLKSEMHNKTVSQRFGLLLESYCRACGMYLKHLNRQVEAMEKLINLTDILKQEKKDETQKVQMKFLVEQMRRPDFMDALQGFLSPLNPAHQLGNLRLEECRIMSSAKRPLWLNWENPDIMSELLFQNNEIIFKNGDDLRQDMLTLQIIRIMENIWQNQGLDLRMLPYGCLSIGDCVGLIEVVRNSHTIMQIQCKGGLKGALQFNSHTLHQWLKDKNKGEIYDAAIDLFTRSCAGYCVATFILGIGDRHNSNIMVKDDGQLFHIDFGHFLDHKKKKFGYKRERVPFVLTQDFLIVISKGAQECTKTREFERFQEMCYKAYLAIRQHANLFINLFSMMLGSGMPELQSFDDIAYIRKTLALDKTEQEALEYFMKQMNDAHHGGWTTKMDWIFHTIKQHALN
- Sequence (P27986 whole entry partner): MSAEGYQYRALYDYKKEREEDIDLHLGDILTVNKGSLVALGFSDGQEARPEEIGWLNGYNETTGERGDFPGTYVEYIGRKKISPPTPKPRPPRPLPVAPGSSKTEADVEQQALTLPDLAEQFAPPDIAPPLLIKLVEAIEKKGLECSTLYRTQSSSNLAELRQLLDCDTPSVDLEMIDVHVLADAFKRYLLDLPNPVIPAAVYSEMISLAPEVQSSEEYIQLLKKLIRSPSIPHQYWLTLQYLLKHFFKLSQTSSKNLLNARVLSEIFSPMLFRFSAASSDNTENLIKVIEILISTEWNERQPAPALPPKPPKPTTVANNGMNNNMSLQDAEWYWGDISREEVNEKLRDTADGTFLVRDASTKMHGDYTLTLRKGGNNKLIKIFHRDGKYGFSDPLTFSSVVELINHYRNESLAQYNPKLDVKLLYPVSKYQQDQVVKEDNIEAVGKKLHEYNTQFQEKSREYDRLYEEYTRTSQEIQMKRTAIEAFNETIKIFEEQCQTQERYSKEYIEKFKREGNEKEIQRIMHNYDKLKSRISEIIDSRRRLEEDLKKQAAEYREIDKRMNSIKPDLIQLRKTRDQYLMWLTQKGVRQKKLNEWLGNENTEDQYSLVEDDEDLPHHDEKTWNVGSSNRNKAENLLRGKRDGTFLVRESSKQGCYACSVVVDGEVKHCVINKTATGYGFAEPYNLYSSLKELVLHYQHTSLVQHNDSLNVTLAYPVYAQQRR
- test description: Fluorescence polarization assay for PI3K
- Assay type: biochemical
- assay conditions: PI3Kα; read-out: PI3Kα IC50

Consider the reported IC50 for these compounds:
compound: COC(=O)N1CCC(n2ncc3c(N4CCOCC4)nc(-c4ccc(NC(=O)OCC(F)(F)F)cc4)nc32)CC1 [Compound 908]
IC50: > 10000 nM
//
compound: COCOc1cncc(-c2nc(N3CCOCC3)c3cnn(C4CCN(Cc5ccccc5)CC4)c3n2)c1 [Compound 249]
IC50: 2000 nM
//
compound: CCONC(=O)Nc1ccc(-c2nc(N3CCOCC3)c3cnn(C4CCN(Cc5ccccc5)CC4)c3n2)cc1 [Example 287]
IC50: 273 nM
//
compound: O=C(NO)Nc1ccc(-c2nc(N3CCOCC3)c3cnn(C4CCN(C(=O)c5cccnc5)CC4)c3n2)cc1 [Compound 550]
IC50: 604 nM

Please turn your attention to the following entry.
Please look up its IC50: COC(=O)Nc1ccc(-c2nc(N3CCOCC3)c3cnn(C4CCN(Cc5ccc(Cl)cc5)CC4)c3n2)cc1 [Compound 451]
389 nM

---

Examples of compounds with documented IC50 follow.
- target system: PI3K (Homo sapiens, UniProt P42336)
- test description: Fluorescence polarization assay for PI3K
- Assay type: biochemical
- assay conditions: PI3Kα; read-out: PI3Kα IC50
The reply must contain the numeric value and, after it, the unit.

In the examples that follow, each entry is paired with its recorded IC50.
compound: CNC(=O)Nc1ccc(-c2nc(N3CCOCC3)c3cnn(-c4ccccc4)c3n2)cc1 [Example 297]
IC50: 51 nM
//
compound: CCOC(=O)N1CCC(n2ncc3c(N4CCOC[C@@H]4C)nc(-c4ccc(NC(=O)Nc5ccc(N6CCOCC6)cc5)cc4)nc32)CC1
IC50: 30 nM
//
compound: CNC(=O)Nc1ccc(-c2nc(N3CCOCC3)c3cnn(C4CCS(=O)(=O)CC4)c3n2)cc1
IC50: 74 nM
//
compound: NNC(=O)Nc1ccc(-c2nc(N3CCOCC3)c3cnn(C4CCN(C(=O)c5cccnc5)CC4)c3n2)cc1 [Compound 551]
IC50: 398 nM
//
compound: CCn1nc(C#CCN(C)C)c2c(N3CCOCC3)nc(-c3ccc(NC(=O)NC)cc3)nc21
IC50: 25 nM

IC50 for O=CN1CCC(n2ncc3c(N4CCOCC4)nc(-c4ccc5[nH]ccc5c4)nc32)CC1 [Compound 518] ?
2800 nM

// query: c1cc2cc(-c3nc(N4CCOCC4)c4cn[nH]c4n3)ccc2[nH]1 [Compound 929]
939 nM

Now the compound NCC(=O)Nc1ccc(-c2nc(N3CCOCC3)c3cn[nH]c3n2)cc1 [Compound 282]
128 nM

Next compound up: "CNC(=O)Nc1ccc(-c2nc(N3CCOCC3)c3cnn(CC(F)(F)F)c3n2)cc1"
194 nM

---

- target system: PI3K (Homo sapiens)
- test description: Fluorescence polarization assay for PI3K
- Type: biochemical
- assay conditions: PI3Kα; read-out: PI3Kα IC50
pIC50: −log10 of the molar value.
Label rule met when pIC50 is at or above 6; anything below gets rule not met.

Example results:
compound: c1ccc(-n2ncc3c(N4CCOCC4)nc(-c4cc5ccccc5o4)nc32)cc1 [Compound 112]
class name: rule not met
--
compound: O=C(NCCCc1ccccc1)Nc1ccc(-c2nc(N3CCOCC3)c3cnn(C4CCN(Cc5ccccc5)CC4)c3n2)cc1 [Compound 506]
class name: rule not met
--
compound: CNC(=O)Nc1ccc(-c2nc(N3CCOCC3)c3cnn(C4CCN(CC(F)(F)F)CC4)c3n2)cc1 [Compound 714]
class name: rule met
--
compound: CC(C)C(=O)N1CCC(n2ncc3c(N4CCOCC4)nc(-c4ccc(NC(=O)NCCF)cc4)nc32)CC1 [Compound 825]
class name: rule not met
--
compound: NC(=O)c1ccc(-c2nc(N3CCOCC3)c3cnn(-c4ccccc4)c3n2)cc1 [Compound 100]
class name: rule met

Now turn to the next compound.
Given the entry C=CC(=O)Nc1ccc(-c2nc(N3CCOCC3)c3cn[nH]c3n2)cc1 [Compound 280] , answer whether its pIC50 meets or surpasses 6.
rule met

---

- target system: PI3K (Homo sapiens, UniProt P42336)
- test description: Fluorescence polarization assay for PI3K
- Assay type: biochemical
- assay conditions: PI3Kα; read-out: PI3Kα IC50
Items are presented alongside their recorded IC50.
Report as a plain number; the unit µM is understood.

compound: COC(=O)Nc1ccc(-c2nc(N3CCOCC3)c3cnn(C4CCN(C(=O)c5ccccc5OC)CC4)c3n2)cc1 [Compound 690]
target system: PI3K (Homo sapiens, UniProt P42336)
IC50 (µM): 0.888

compound: CC(=O)Nc1cccc(-c2nc(N3CCOCC3)c3cnn(-c4ccccc4)c3n2)c1
target system: PI3K (Homo sapiens, UniProt P42336)
IC50 (µM): 0.357

# next compound below
// returns reported IC50 for input "CN1CCN(C(=O)N2CCC(n3ncc4c(N5CCOCC5)nc(-c5ccc6[nH]ccc6c5)nc43)CC2)CC1"
0.737

---

- target system: PI3K (Homo sapiens, UniProt P42336)
- test description: Fluorescence polarization assay for PI3K;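 note: PI3K kinase reaction on PIP2 with ATP, 30-60 min, product sensed by GST-GRP with red probe in fluorescence polarization (mP), controls without enzyme and at zero time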
- Assay type: biochemical
- assay conditions: PI3Kα; read-out: PI3Kα IC50
Some compounds, each annotated with its measured pIC50.
Convention used: pIC50 is expressed as -log10 of the molar concentration.

See these solved cases before continuing.
compound: COC(=O)Nc1ccc(-c2nc(N3CCOCC3)c3cnn(C4CCN(Cc5ccc(Cl)cc5)CC4)c3n2)cc1 [Compound 695]
pIC50: 6.41
--
compound: CCNC(=O)Nc1ccc(-c2nc(N3CCOCC3)c3cnn(C4CCN(C(=O)c5cccnc5)CC4)c3n2)c(F)c1 [Compound 706]
pIC50: 5.79
--
compound: CC(C)C(=O)N1CCC(n2ncc3c(N4CCOCC4)nc(-c4ccc(NC(=O)Nc5ccccc5)cc4)nc32)CC1
pIC50: 7.54
--
compound: O=C(Nc1ccc(-c2nc(N3CCOCC3)c3cnn(C4CCN(C(=O)OCc5ccccc5)CC4)c3n2)cc1)Nc1cccnc1
pIC50: 8.15
--
compound: CCCCNC(=O)Nc1ccc(-c2nc(N3CCOCC3)c3cnn(C4CCN(Cc5ccccc5)CC4)c3n2)cc1
pIC50: 6.74

--- query ---
Look up pIC50 for this compound: NNC(=O)Nc1ccc(-c2nc(N3CCOCC3)c3cnn(C4CCN(Cc5ccccc5)CC4)c3n2)cc1 [Compound 554]
6.81
